Recorded inhibition by entry
target_entity: 1-phosphatidylinositol 4,5-bisphosphate phosphodiesterase gamma-1 (Homo sapiens)
assay_overview: PLC-gamma1 enzyme inhibitors, primary screen, biochemical, fluorescence, purified enzyme (AID 720700)
condition_label: purified PLC-gamma1, fluorogenic substrate, at 12.2 µM, active compounds read high
The whole screen tested about 370,000 compounds, of which about 3,100 (0.84%) were called active. For the sample, actives were picked, then their nearest neighbours and some compounds at random.
Please state the figure in %; there is no need to write the unit.

Recorded inhibition, per entry:
- molecule: "CCOC(=O)N1CCC(NC(=O)Cc2cn(C)c3ccccc23)CC1"
  endpoint_value: 2.53
- molecule: "CCCCNC(=O)C[C@@H]1C(=O)N(CCc2ccc(Cl)cc2)C2=CCCC[C@]21C(=O)OCC"
  endpoint_value: 1.96
- molecule: "CCOC(=O)N1CCC(C(N)=O)CC1"
  endpoint_value: -1.53

Please supply the value of reported inhibition for the item `O=C(NCCC1=CCCCC1)C1CCN(S(=O)(=O)c2ccc(Cl)s2)CC1`
-0.14

Give the reported inhibition for this molecule. `CN1C(=O)c2cc(NS(C)(=O)=O)ccc2OC[C@@H]2O[C@@H](CC(=O)NCc3ccc(-c4ccccc4)cc3)CC[C@H]21`
-2.2

---

target_entity: 1-phosphatidylinositol 4,5-bisphosphate phosphodiesterase gamma-1 (Homo sapiens) (UniProt P19174)
Sequence (P19174 whole entry, looked up): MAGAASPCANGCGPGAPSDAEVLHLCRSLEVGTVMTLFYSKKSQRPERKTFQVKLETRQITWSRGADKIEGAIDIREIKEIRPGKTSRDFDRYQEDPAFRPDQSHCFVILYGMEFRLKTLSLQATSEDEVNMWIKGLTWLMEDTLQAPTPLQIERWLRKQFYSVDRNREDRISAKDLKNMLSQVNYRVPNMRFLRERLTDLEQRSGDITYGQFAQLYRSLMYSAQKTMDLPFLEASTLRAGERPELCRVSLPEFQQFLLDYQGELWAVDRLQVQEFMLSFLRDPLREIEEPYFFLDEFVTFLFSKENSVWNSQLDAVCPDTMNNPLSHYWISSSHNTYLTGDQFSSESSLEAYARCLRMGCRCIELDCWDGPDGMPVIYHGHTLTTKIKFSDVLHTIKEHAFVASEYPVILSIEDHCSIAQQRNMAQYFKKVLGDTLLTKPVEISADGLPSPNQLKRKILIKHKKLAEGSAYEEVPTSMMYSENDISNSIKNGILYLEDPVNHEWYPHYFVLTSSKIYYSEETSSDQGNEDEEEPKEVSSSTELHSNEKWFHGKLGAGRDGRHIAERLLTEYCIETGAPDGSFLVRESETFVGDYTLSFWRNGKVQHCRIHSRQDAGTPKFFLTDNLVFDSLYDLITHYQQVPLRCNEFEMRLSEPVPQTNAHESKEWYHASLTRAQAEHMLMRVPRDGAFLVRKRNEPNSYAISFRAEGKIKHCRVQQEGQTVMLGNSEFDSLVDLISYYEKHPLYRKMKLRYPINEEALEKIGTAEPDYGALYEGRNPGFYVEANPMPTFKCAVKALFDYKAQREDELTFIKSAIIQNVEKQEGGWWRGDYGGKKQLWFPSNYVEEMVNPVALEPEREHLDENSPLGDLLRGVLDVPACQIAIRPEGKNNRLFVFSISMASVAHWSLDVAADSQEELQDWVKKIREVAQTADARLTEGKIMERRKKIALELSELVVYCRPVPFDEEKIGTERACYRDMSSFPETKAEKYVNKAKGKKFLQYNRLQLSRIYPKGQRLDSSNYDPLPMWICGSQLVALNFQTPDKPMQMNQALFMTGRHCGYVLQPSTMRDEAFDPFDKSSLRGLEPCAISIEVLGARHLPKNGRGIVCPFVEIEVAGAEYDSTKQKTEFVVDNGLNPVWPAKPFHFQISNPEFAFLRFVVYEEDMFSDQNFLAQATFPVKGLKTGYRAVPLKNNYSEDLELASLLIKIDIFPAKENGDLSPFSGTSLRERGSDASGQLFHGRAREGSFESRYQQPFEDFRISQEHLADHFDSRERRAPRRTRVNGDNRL
assay_overview: PLC-gamma1 enzyme inhibitors, primary screen, biochemical, fluorescence, purified enzyme (AID 720700)
condition_label: purified PLC-gamma1, fluorogenic substrate, at 12.2 µM, active compounds read high
The whole screen tested about 370,000 compounds, of which about 3,100 (0.84%) were called active. Shown is part of a subset that was picked to be rich in actives.
property_label: inhibition (%)
Please state the figure in %; there is no need to write the unit.

- compound: "O=C1CC[C@@H](COc2ccc3[nH]cc(-c4ccccc4)c3c2-c2ccccc2)N1"
  property_label: "inhibition"
  measurement_unit: "%"
  endpoint_value: -12.8

Retrieve inhibition measured for `COc1ccc(C(C)=O)cc1COC(=O)Cn1cnc2ccccc2c1=O` and print it.
5.51

Entry `C=CCN(C)CC#Cc1ccccc1` needs its inhibition filled in; supply it.
1.26

// fetch inhibition given entry `O=C(OCC#CCSc1nnc(-c2ccco2)o1)c1ccc(F)cc1`
-0.72

# return recorded inhibition for entry `CN(CCO)c1cccc2c1S(=O)(=O)N(Cc1cn(Cc3ccc(C(F)(F)F)cc3)nn1)Cc1ccccc1O2`
-12.9

Tell us which inhibition value is on record for `CC1=NCCN1S(=O)(=O)c1cccc([N+](=O)[O-])c1`
-1.13

Look up inhibition of `CCN(CC)C(=O)CC[C@@H]1CC[C@]2(CCCN(S(=O)(=O)C3CCCCC3)C2)O1` and report it.
-1.56

Identify measured inhibition associated with `COc1ccc(-n2c(COc3ccccc3)nnc2SCC(=O)Nc2ccc3c(c2)OCO3)cc1`
-1.32

Please give measured inhibition of the following entry: `CCOc1c(Br)cc(/C=C2\C(=O)N(CCC#N)N=C2C)cc1OC`
24.6

Complete the entry with inhibition for `COc1ccccc1CCNC(=O)CN1C(=O)NC2(CCCC2)C1=O`
10.4

Please list inhibition recorded for the compound `Cc1ccccc1NC(=O)COC(=O)c1ccc(Sc2ncn[nH]2)c([N+](=O)[O-])c1`
-0.83

# return recorded inhibition for input `Cc1n[nH]c(=O)n1-c1ccc(Oc2ccccc2)cc1`
-0.23

Quote inhibition reported for O=C1CS(=O)CN1c1ccc(Oc2ccccc2)cc1 (configuration not stated) please.
12

Provide only the value of recorded inhibition for `CC(C)Cn1cnc2c1c(=O)n(CC(=O)NN)c(=O)n2Cc1ccccc1`
-18.6

---

Attribute: inhibition
target_entity: 1-phosphatidylinositol 4,5-bisphosphate phosphodiesterase gamma-1 (Homo sapiens) (UniProt P19174)
assay_overview: PLC-gamma1 enzyme inhibitors, primary screen, biochemical, fluorescence, purified enzyme (AID 720700)
condition_label: purified PLC-gamma1, fluorogenic substrate, at 12.2 µM, active compounds read high
In all, about 370,000 compounds went through this assay and about 3,100 (0.84%) were called active. Shown is part of a subset that was picked to be rich in actives.
Write the value in % as a bare number.

- compound: "C=CCN(Cc1ccc2c(c1)OCO2)C(C#CC1CC1)C(C)(C)C (stereo not given)"
  inhibition [%]: -0.25

Turning now to a further record.
Identify inhibition associated with the compound O=C1N/C(=N\N=C\c2ccco2)SC1Cc1ccc(F)cc1 (stereo not given)
2.17

---

target_entity: 1-phosphatidylinositol 4,5-bisphosphate phosphodiesterase gamma-1 (Homo sapiens) (UniProt P19174)
assay_overview: PLC-gamma1 enzyme inhibitors, primary screen, biochemical, fluorescence, purified enzyme (AID 720700)
condition_label: purified PLC-gamma1, fluorogenic substrate, at 12.2 µM
The whole screen tested about 370,000 compounds, of which about 3,100 (0.84%) were called active. Rule as the data show it: active = inhibition above about 9.5%; inactive = the rest. The full list was thinned out, with actives kept by preference.
Your answer must be one of the following: active, inactive

Observe how each entry below is paired with its result.
- molecule: "COC(=O)[C@H](C(C)C)N1CCc2nnn(Cc3ccc(C)cc3)c2-c2ccccc2S1(=O)=O"
  assigned_label: "inactive"
- molecule: "O=C(/C=C/c1c(Cl)cccc1Cl)NCc1ccccc1"
  assigned_label: "inactive"
- molecule: "COC(=O)[C@]12C[C@H](CC(=O)NCc3ccccc3)C(=O)N(CCc3ccc(OC)c(OC)c3)C1=C[C@H](C(C)(C)C)O[C@@H]2C"
  assigned_label: "inactive"
- molecule: "CS(=O)(=O)c1ccc(Cl)c(NC(=O)COC(=O)c2cccc(S(=O)(=O)N3CCCC3)c2)c1"
  assigned_label: "inactive"
- molecule: "Cc1ccc(S(=O)(=O)N2CCCCC2)cc1NC(=O)CCNC(=O)c1ccccc1"
  assigned_label: "active"

Now for another entry.
Hey, what did the test say about `CCOC(=O)[C@]12CCCC3=C1N(CCC3)C(=O)[C@@H](CC(=O)N1CCSCC1)C2` ?
inactive

---

target_entity: 1-phosphatidylinositol 4,5-bisphosphate phosphodiesterase gamma-1 (Homo sapiens) (UniProt P19174)
assay_overview: PLC-gamma1 enzyme inhibitors, primary screen, biochemical, fluorescence, purified enzyme (AID 720700)
condition_label: purified PLC-gamma1, fluorogenic substrate, at 12.2 µM, active compounds read high
About 3,100 (0.84%) of roughly 370,000 compounds were called active. The list comes from a sample in which actives are over-represented; it also holds close analogues and randomly drawn compounds.
property_label: inhibition (%)
Dear colleague, please return just the value in %, with no unit written.

// solved cases for inhibition follow
- compound: "CCn1c2ccccc2c2cc(NC(=O)CSc3nnc(-c4ccccc4)n3-c3ccc(C)cc3)ccc21"
  property_label: "inhibition"
  endpoint_value: -1.61
- compound: "CN(CCc1ccccc1)C(=O)Cn1nc(-c2ccccc2)ccc1=O"
  property_label: "inhibition"
  endpoint_value: 1.49
- compound: "O=[N+]([O-])c1cc(C(F)(F)F)ccc1NCCc1ccncc1"
  property_label: "inhibition"
  endpoint_value: -0.57

Please look at this compound and report its inhibition: `COc1ccc(C(=O)Nc2c(N)nc(SCC(=O)Nc3ccc(C(C)=O)cc3)[nH]c2=O)cc1`
-0.47

Fill in reported inhibition for this entry: `C=CCN1C(=O)[C@H](CC(=O)NCCCN2CCCC2=O)[C@@]2(C(=O)OCC)CCCC=C12`
-1.95

Respond only with inhibition recorded for Cc1c(C(C)c2ccccc2O)[nH]c2ccccc12 (stereo unspecified)
-4.04

Report inhibition for `COC[C@@H]1CCCN1c1ccc2c(c1)O[C@H](C)CCN(C1CC1)S2(=O)=O`
-1.38

Specify inhibition for `C=CCN(C(=O)[C@@H](CCCC)[C@@H](O)c1ccc(Cl)cc1)c1ccccc1` and stop.
-0.11

Hello, please tell me recorded inhibition for this one: `COC(=O)[C@]1(C#N)CC(=O)N(CC2CCCCC2)[C@@H]1c1ccccc1`
8.67

Please list inhibition recorded for the compound `COc1ccc(NC(=O)c2ccccc2CC[N+](=O)[O-])cc1`
0.81

Give the measured inhibition for `O=[N+]([O-])c1cc(S(=O)(=O)N2CCCC2)ccc1NN=C1CCCC1`
7.15

---

target_entity: 1-phosphatidylinositol 4,5-bisphosphate phosphodiesterase gamma-1 (Homo sapiens)
assay_overview: PLC-gamma1 enzyme inhibitors, primary screen, biochemical, fluorescence, purified enzyme (AID 720700)
condition_label: purified PLC-gamma1, fluorogenic substrate, at 12.2 µM, active compounds read high
Screen size: about 370,000 compounds; about 3,100 (0.84%) were called active. Many of the other results were omitted from the sample, so actives are more common in it than they were.
Measured inhibition by item
Use % as the unit, but write only the number.

Below, each entry is followed by its recorded inhibition result.
- molecule: "Cc1ccc(C(=O)C(=S)N2CCOCC2)cc1"
  target_entity: "1-phosphatidylinositol 4,5-bisphosphate phosphodiesterase gamma-1 (Homo sapiens)"
  property_label: "inhibition"
  endpoint_value: 0.9
- molecule: "Cc1ccc(C(=O)N2CCN(C(=O)N3CCOCC3)CC2)cc1"
  target_entity: "1-phosphatidylinositol 4,5-bisphosphate phosphodiesterase gamma-1 (Homo sapiens)"
  property_label: "inhibition"
  endpoint_value: 10.4

Supply recorded inhibition for `CSc1ccc(C#N)cc1NC(=O)c1ccc(Cl)cc1` here.
-1.63

Give reported inhibition value for `Cc1ccc(C(=O)NC2CCN(C(=O)N3CCOCC3)CC2)cc1`
4.32

Retrieve inhibition measured for `COc1cccc(N2CCN(CC(=O)N(C)Cc3ccc(F)cc3)CC2)c1` and print it.
0.54

Fill in reported inhibition for this entry: `C=CC[C@@H](CC(=O)N[C@@H](CO)Cc1ccccc1)C(=O)NCCOC(=O)[C@@H](CC=C)CC(=O)OC(C)(C)C`
5.69

Provide one value: measured inhibition of `Cc1cccc(NC(=O)N2CCCCCC2)c1C`
0.02

Dear colleague, please send me the reported inhibition for `CSc1nccc(NC(=O)c2ccc(C(C)(C)C)cc2)n1` when you can.
7.02
